Ref: patent US9068080B2

- METHOD_NOTES: UV absorption spectrum (λmax, ε) of the merocyanine UV filters
- Format: physicochemical
- CONDITION_INFO: in EtOH
Entries and their measured ε (molar extinction at λmax) follow.
// no unit, no text: just the number

- CCOC(=O)/C(C#N)=C\C=C\N(C)CCC[Si](C)(O[Si](C)(C)C)O[Si](C)(C)C: 69116
- CCOC(=O)/C(C#N)=C1\C=C(NCCC[Si](C)(O[Si](C)(C)C)O[Si](C)(C)C)CC(C)(C)C1: 50383
- CC1(C)CC(NCCC[Si](C)(O[Si](C)(C)C)O[Si](C)(C)C)=CC(=C(C#N)C#N)C1: 52829

# ---- query molecule ----
The recorded ε (molar extinction at λmax) for CCOC(=O)/C(C#N)=C1/C=C(NCCC[Si]2(C)O[Si](C)(CCCNC3=C/C(=C(\C#N)C(=O)OCC)CC(C)(C)C3)O[Si](C)(CCCNC3=C/C(=C(\C#N)C(=O)OCC)CC(C)(C)C3)O[Si](C)(CCCNC3=C/C(=C(\C#N)C(=O)OCC)CC(C)(C)C3)O2)CC(C)(C)C1 (stereo not shown) is 181817
